# System: Calu-3
# MEASUREMENT DESCRIPTION: Antiproliferative activity against human Calu-3 cells assessed as inhibition of cell growth incubated for 72 hrs by cell-titer glo assay
# Format: functional, cell-based
# CONDITION: Calu-3, 72 h
ENDPOINT: pIC50
Answers are plain numbers, as −log10 of the molar value.

Memo: CN1CCN(c2ccc(OC(F)(F)F)c(Nc3ncc4c(n3)-c3c(c(C(N)=O)nn3CCO)CC4)c2)CC1 , reported pIC50: 6.20

----------
# Tested on: NCI-H889
# MEASUREMENT DESCRIPTION: Antiproliferative activity against human NCI-H889 cells assessed as inhibition of cell growth incubated for 72 hrs by cell-titer glo assay
# Type: functional, cell-based
# CONDITION: NCI-H889, 72 h
ENDPOINT: pIC50
Numbers only, as −log10 of the molar value.

Reported pIC50 ( CN1CCN(c2ccc(OC(F)(F)F)c(Nc3ncc4c(n3)-c3c(c(C(N)=O)nn3CCO)CC4)c2)CC1 [ONVANSERTIB] ) = 6.87

The reported numbers originate from ChEMBL document CHEMBL5678806.
